- study.target: SMARCA4 (Homo sapiens, UniProt P51532)
- Construct: SMARCA4-HiBiT knock-in Hela monoclonal cell (CS3023226); host or cells: HeLa monoclonal cells with heterozygous HiBiT knock-in at the endogenous SMARCA4 locus
- Sequence (P51532 whole entry): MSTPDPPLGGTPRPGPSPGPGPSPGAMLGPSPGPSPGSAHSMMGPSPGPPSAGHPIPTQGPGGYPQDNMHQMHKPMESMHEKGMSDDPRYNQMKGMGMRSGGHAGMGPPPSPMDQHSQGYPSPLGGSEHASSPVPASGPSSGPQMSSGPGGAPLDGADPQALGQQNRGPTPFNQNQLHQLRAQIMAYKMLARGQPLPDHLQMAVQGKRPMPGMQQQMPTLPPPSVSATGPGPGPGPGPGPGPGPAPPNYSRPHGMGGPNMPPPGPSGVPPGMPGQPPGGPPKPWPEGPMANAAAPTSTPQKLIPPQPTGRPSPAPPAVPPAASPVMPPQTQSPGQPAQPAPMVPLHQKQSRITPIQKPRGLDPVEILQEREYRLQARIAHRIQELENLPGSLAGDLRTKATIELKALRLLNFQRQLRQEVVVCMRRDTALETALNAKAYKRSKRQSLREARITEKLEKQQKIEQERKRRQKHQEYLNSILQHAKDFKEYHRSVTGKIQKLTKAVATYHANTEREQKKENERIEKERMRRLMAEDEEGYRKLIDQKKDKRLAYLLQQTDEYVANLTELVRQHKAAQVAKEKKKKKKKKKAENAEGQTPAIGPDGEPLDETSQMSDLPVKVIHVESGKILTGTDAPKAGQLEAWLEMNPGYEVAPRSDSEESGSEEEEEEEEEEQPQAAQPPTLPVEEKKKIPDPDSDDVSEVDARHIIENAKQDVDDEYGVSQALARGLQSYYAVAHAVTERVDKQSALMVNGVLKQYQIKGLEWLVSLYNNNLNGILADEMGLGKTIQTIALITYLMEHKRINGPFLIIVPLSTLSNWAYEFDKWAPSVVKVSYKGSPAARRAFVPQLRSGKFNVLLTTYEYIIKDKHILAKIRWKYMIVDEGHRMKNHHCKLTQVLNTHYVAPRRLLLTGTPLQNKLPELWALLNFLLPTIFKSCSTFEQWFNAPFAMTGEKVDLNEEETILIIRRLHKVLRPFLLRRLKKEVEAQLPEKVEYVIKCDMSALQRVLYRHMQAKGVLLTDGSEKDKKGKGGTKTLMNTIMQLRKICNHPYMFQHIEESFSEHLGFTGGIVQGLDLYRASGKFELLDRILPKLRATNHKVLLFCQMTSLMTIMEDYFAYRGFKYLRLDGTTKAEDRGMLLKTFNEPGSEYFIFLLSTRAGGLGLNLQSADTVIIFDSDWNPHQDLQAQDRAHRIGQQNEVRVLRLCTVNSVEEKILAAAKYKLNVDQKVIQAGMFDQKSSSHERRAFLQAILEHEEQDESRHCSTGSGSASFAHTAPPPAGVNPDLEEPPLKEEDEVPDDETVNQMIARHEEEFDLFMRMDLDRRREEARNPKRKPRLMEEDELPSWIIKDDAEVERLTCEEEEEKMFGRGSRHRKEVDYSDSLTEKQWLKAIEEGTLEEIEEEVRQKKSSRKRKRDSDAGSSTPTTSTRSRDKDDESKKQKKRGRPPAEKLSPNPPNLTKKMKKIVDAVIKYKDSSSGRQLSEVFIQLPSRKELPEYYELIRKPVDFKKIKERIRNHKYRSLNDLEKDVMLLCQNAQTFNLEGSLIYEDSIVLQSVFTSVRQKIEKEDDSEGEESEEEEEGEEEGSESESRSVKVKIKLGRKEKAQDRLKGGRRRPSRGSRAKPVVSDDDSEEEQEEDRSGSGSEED
- assay.procedure: SMARCA4 HiBiT degradation assay in HeLa cells
- Assay type: cell-based
- measurement.context: 18 hours, highest concentration 10 μM
Recorded DC50 values for a group of compounds are listed next.

Known DC50 results, listed for orientation:
Cc1nc(O[C@H]2CN3c4cc(-c5cccc(F)c5O)nnc4NC[C@@]3(C)C2)nc(C)c1CN1CCC(c2ccc3c(c2)C(=O)N([C@H]2CCC(=O)NC2=O)C3)CC1    > 1000 nM
CC[C@@]12CNc3nnc(-c4cccc(Cl)c4O)cc3N1C[C@H](Oc1cc(C)c(CN3CCC(c4ccc5c(c4)C(=O)N([C@H]4CCC(=O)NC4=O)C5)CC3)cn1)C2    100 to 1000 nM
O=C1CCC(N2Cc3ccc(N4CCN(Cc5cnc(O[C@H]6CN7c8cc(-c9cccc(F)c9O)nnc8NC[C@]7(C(F)F)C6)nc5)CC4)cc3C2=O)C(=O)N1 (stereo partly shown)    > 1000 nM

Consider the additional compound presented here.
I am curious: what DC50 value has been reported for `Cc1cc(O[C@H]2CN3c4cc(-c5cccc(F)c5O)nnc4NC[C@]3(C)C2)cnc1CN1CCN(c2ccc3c(c2)C(=O)N([C@H]2CCC(=O)NC2=O)C3)CC1` ? < 100 nM

###

- study.target: SMARCA4 (Homo sapiens)
- Construct: SMARCA4-HiBiT knock-in Hela monoclonal cell (CS3023226); host or cells: HeLa monoclonal cells with heterozygous HiBiT knock-in at the endogenous SMARCA4 locus
- assay.procedure: SMARCA4 HiBiT degradation assay in HeLa cells
- Assay type: cell-based
- measurement.context: 18 hours, highest concentration 10 μM
Recorded DC50 values for a group of compounds are listed next.

Known DC50 results, listed for orientation:
O=C1CCC(N2Cc3ccc(N4CCN(Cc5ccc(S[C@@H]6C[C@@H]7CNc8nnc(-c9cc(F)cc(F)c9O)cc8N7C6)cc5)CC4)cc3C2=O)C(=O)N1 (stereo partly drawn)    < 100 nM
Cc1nc(O[C@H]2CN3c4cc(-c5cccc(F)c5O)nnc4NC[C@@]3(C)C2)ncc1CN1CCC(c2ccc3c(c2)C(=O)N([C@H]2CCC(=O)NC2=O)C3)CC1    > 1000 nM

Consider the additional compound presented here.
I am curious: what DC50 value has been reported for `O=C1CC[C@H](N2Cc3ccc(N4CCN(Cc5ccc(O[C@@H]6C[C@@H]7CNc8nnc(-c9cccc(Cl)c9O)cc8N7C6)cc5)CC4)cc3C2=O)C(=O)N1` ? < 100 nM
